# Target: human mAChR M1 (Homo sapiens, UniProt P11229)
# Experiment Notes: mAChR M1 cell-based functional assay: calcium mobilization, positive allosteric modulator mode (increase in EC20 acetylcholine response)
# Assay Context: Table 2; human M1; read-out: Human M1 Emax (%)
Reported Property: Emax (%)
Give bare numbers, in %.

INSERT INTO measurements (compound, target, reported_value) VALUES
  ('O=C(NC1CC2(COC2)C1)c1cc(Cc2ccc(-n3cccn3)cc2)c2sccc2n1', 'human mAChR M1 (Homo sapiens, UniProt P11229)', 69.9),
  ('N#CC1(NC(=O)c2cc(Cc3ccc(-n4cccn4)cc3)c3sccc3n2)CC1', 'human mAChR M1 (Homo sapiens, UniProt P11229)', 40),
  ('O=C(NCC1CCOC1)c1cc(Cc2ccc(-n3cccn3)cc2)c2sccc2n1 (stereo not shown)', 'human mAChR M1 (Homo sapiens, UniProt P11229)', 64.3);

Read the next record carefully.
// query Which Emax value is on record for "Cn1ccc(-c2ccc(Cc3cc(C(=O)NCC4CCOCC4)nc4ccn(C)c34)cc2)n1" ?
// result 83.5

* * *

# Target: human mAChR M1 (Homo sapiens)
# Experiment Notes: mAChR M1 cell-based functional assay: calcium mobilization, positive allosteric modulator mode (increase in EC20 acetylcholine response)
# Assay Context: Table 2; human M1; read-out: Human M1 EC50
Flag rule - EC50 less than 600 nM flags true; the remaining entries get false.

INSERT INTO assay_data (smiles_structure, qualitative_label) VALUES
  ('Cc1nc(-c2ccc(Cc3cc(C(=O)NC4CCOCC4)nc4ccsc34)cc2)cs1', 'true'),
  ('O=C(N[C@@H]1COCC[C@H]1O)c1cc(Cc2ccc(C(F)(F)F)nc2)c2sccc2n1', 'false'),
  ('COCCCNC(=O)c1cc(Cc2ccc(-c3nccs3)cc2)c2sccc2n1', 'false');

// query Please determine if "Cc1nc(-c2ccc(Cc3cc(C(=O)NC4CC5(COC5)C4)nc4ccsc34)cc2)co1" is below 600 nM in terms of EC50.
// result true

// query Please determine if "Cc1nn(C)c(C)c1-c1ccc(Cc2cc(C(=O)NC3CCOCC3)nc3ccsc23)cc1" is below 600 nM in terms of EC50.
// result false

// query Please determine if "O=C(N[C@@H]1CCOC1)c1cc(Cc2ccc(-n3cccn3)cc2)c2sccc2n1" is below 600 nM in terms of EC50.
// result false

// query Please determine if "Cc1ccc(Cc2cc(C(=O)N[C@@H]3CCCCC[C@H]3O)nc3c(C)csc23)cn1" is below 600 nM in terms of EC50.
// result true

// query Please determine if "Cn1ccc(-c2ccc(Cc3cc(C(=O)NC4CCOCC4)nc4ccsc34)cn2)n1" is below 600 nM in terms of EC50.
// result true

* * *

# Target: UniProt:P11229
# Sequence (P11229 1-460): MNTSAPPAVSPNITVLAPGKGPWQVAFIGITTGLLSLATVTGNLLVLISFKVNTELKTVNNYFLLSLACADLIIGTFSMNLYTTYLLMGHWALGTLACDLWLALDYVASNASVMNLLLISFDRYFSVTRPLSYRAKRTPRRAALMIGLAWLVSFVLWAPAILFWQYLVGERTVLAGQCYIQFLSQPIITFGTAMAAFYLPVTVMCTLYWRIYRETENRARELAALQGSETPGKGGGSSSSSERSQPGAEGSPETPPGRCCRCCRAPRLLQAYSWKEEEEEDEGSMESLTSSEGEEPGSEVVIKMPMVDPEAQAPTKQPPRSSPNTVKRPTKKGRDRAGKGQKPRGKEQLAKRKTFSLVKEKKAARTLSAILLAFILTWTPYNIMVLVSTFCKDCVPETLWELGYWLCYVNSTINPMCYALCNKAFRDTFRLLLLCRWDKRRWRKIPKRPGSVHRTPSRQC
# Experiment Notes: mAChR M1 cell-based functional assay: calcium mobilization, positive allosteric modulator mode (increase in EC20 acetylcholine response)
# Assay Context: Table 2; human M1; read-out: Human M1 EC50
Reported Property: EC50
The answer consists of two parts: a number and, after it, its unit.

INSERT INTO measurements (compound, target, reported_value) VALUES
  ('Cc1ccc(Cc2cc(C(=O)NC3CCCCNC3=O)nc3ccsc23)cn1 (stereo not shown) [Compound 67]', 'UniProt:P11229', '2780 nM'),
  ('COCCCNC(=O)c1cc(Cc2ccc(-n3cccn3)cc2)c2sccc2n1 [Compound 430]', 'UniProt:P11229', '1080 nM'),
  ('Cn1ncc2nc(C(=O)NC[C@H]3CCCO3)cc(Cc3ccc(-n4cccn4)cc3)c21 [Compound 502]', 'UniProt:P11229', '4140 nM');

Read the next record carefully.
// query Which EC50 value is on record for Cn1ccc2nc(C(=O)N[C@H]3CCOC[C@@H]3O)cc(Cc3ccc(-n4cccn4)cc3)c21 [Compound 453] ?
// result 6.77 nM
